- System: Calu-3
- METHOD DESCRIPTION: cell viability relative to DMSO; higher = less toxic
- CONDITION LABEL: 72 h; 1000 nM
Where a name gives a salt, the structure may show the parent alone.
As shown below, each of these molecules has a reported cell viability value.
MEASURED PROPERTY: cell viability (%)

# MOLECULE, VALUE OBSERVED
measured = [
    ("CCOC(=O)c1c(C)n(C)c2ccc(O)cc12 [mecarbinate]", 90.6),
    ("O=C1c2c(O)ccc(O)c2C(=O)c2c(NCCNCCO)ccc(NCCNCCO)c21", 46.7),
    ("CCCCC1=NC2(CCCC2)C(=O)N1Cc1ccc(-c2ccccc2-c2nnn[nH]2)cc1", 101),
    ("Cc1cnc(Nc2ccc(N3CCN(C)CC3)cc2)nc1Nc1cccc(S(=O)(=O)NC(C)(C)C)c1", 86.1),
    ("CN[C@@H]1[C@H](O[C@H]2[C@H](O[C@H]3[C@H](O)[C@@H](O)[C@H](N=C(N)N)[C@@H](O)[C@@H]3N=C(N)N)O[C@@H](C)[C@]2(O)C=O)O[C@@H](CO)[C@H](O)[C@H]1O [STREPTOMYCIN SULFATE [5mM; 10% aq DMSO + 5mM ethanolamine]]", 91.9),
    ("Cc1cc(C)c2c(N)c(C(=O)NCc3ccc(Cl)cc3)sc2n1", 108),
]
